B1: LINE1-full (parent)
chain: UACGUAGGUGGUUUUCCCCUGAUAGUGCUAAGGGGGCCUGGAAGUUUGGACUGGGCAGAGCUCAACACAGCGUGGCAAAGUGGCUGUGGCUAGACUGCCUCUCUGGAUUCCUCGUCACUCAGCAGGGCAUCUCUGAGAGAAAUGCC

variants of: B1; assay: self-cleavage, relative activity (ratio to wild type); higher = more cleavage; in vitro, sequencing; the parent is a self-cleaving ribozyme
Param threshold (1) applies to self-cleavage; output true (1) when value >= threshold, false (0) when value < threshold.

Example entries begin here.
> print(dat)
   mutation.key      class
1    A57U U102A  false (0)
2    C98U A138G   true (1)

Incoming: Is reported self-cleavage greater than or equal to 1 here: U15C U29A
Outgoing: true (1)

Incoming: Is self-cleavage at least 1? Consider A79U U100G
Outgoing: true (1)

Incoming: Please indicate if the recorded self-cleavage for C19A U109A meets or exceeds 1.
Outgoing: true (1)

Incoming: Is reported self-cleavage greater than or equal to 1 here: C16U U104A
Outgoing: true (1)

Incoming: Would you say A94U A107U shows self-cleavage at minimum 1?
Outgoing: false (0)

Incoming: Assess whether reported self-cleavage for A94G U115C sits at 1 or higher.
Outgoing: false (0)

Incoming: Textbook exercise: given the entry U39A A141U , state whether its self-cleavage is greater than or equal to 1.
Outgoing: true (1)

Incoming: Identify whether the reported self-cleavage of the following variant is 1 or greater: U85A U130A
Outgoing: false (0)

Incoming: Given U9C U26C , state whether its self-cleavage is at least 1.
Outgoing: true (1)

Incoming: Hello, I need to know if C37U A124G has measured self-cleavage not below 1. Thanks!
Outgoing: false (0)

Attribution: the RNAGym collection of RNA variant scans (doi:10.7554/elife.90254)
